B1: Chromodomain-helicase-DNA-binding protein 4, residues 623 to 675; numbered along this chain, Q14839 (parent)
chain: MIHRILNHSVDKKGHVHYLIKWRDLPYDQASWESEDVEIQDYDLFKQSYWNHR

Variants of: B1
Method description: abundance fitness (aPCA) (normalised: wild type 0, dead -1); higher = more abundant; growth selection in yeast, the domain comes from the species named
Condition info: Homo sapiens
Note to self: class = bucket of abundance fitness, per lower segment: < -0.8; middle segment: ≥ -0.8 and < -0.3; upper segment: ≥ -0.3

Variant spec: P26V
Qualitative label: middle segment

Variant spec: D11M
Qualitative label: lower segment

Variant spec: A30C
Qualitative label: upper segment

Variant spec: Q29L
Qualitative label: upper segment

Variant spec: Q29H
Qualitative label: upper segment

Variant spec: K21S
Qualitative label: middle segment

Variant spec: G14K
Qualitative label: middle segment

Variant spec: K21G
Qualitative label: middle segment

Variant spec: Y27A
Qualitative label: upper segment

Variant spec: I20N
Qualitative label: lower segment
